Biological target: full-length beta-Catenin (Uniprot ID P35222) (Homo sapiens, UniProt P35222)
Construct: 10 nM full-length beta-Catenin (Uniprot ID P35222)
Sequence (P35222 1-781): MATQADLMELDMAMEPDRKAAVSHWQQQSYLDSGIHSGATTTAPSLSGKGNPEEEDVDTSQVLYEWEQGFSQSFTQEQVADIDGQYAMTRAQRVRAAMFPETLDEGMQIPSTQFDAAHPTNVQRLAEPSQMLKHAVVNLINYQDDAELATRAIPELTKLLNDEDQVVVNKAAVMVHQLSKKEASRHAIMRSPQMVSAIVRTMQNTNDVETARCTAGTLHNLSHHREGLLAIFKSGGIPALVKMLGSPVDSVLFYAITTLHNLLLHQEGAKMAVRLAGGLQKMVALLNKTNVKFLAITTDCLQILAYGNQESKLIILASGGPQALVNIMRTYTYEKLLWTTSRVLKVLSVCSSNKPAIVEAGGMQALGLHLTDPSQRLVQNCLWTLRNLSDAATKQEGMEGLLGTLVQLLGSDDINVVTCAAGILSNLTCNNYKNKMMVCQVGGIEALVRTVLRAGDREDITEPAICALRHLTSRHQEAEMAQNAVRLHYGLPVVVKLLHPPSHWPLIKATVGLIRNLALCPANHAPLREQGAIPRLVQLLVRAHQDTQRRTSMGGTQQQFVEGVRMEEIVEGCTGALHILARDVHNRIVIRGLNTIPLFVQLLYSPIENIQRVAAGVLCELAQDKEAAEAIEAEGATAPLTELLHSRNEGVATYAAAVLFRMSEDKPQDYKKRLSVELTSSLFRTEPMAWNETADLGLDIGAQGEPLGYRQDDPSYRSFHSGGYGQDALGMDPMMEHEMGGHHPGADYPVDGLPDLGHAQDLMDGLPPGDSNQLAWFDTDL
Assay: Fluorescence polarization IC50 (beta-catenin / 5FAM-TCF4 10-53 competition)
Type: binding
Details: read-out: FP EC50
Measured attribute: pIC50
Scale explanation: pIC50 corresponds to minus log10 of a concentration expressed in moles per litre.

The following compounds have reported results that may help.
# Compound, pIC50
rows = [
    ("CC(=O)N1CCC[C@]12CC=CCCCC1(CCCC=CCCCCCC[C@@](C)(C(=O)N[C@@H](Cc3ccccc3)C(=O)N[C@@H](Cc3csc4ccccc34)C(=O)N[C@@H](CCC(N)=O)C(N)=O)NC(=O)[C@H](CC(N)=O)NC(=O)[C@H](Cc3ccsc3)NC(=O)[C@H](C)NC(=O)[C@H](C)NC(=O)[C@H](CCC(=O)O)NC(=O)[C@H](CC(=O)O)NC1=O)NC(=O)[C@H](C)NC(=O)[C@H](CC(=O)O)NC2=O (stereo partly shown) [I-449]", 7.28),
    ("CC(=O)N1CCC[C@]12CC=CCCCC1(CCCC=CCCCCCC[C@@](C)(C(=O)N[C@@H](Cc3ccccc3)C(=O)N[C@@H](Cc3csc4ccccc34)C(=O)N[C@@H](CCC(N)=O)C(N)=O)NC(=O)[C@H](CC(N)=O)NC(=O)[C@H](Cc3cccs3)NC(=O)[C@H](C)NC(=O)[C@H](C)NC(=O)[C@H](CCC(=O)O)NC(=O)[C@H](CC(=O)O)NC1=O)NC(=O)[C@H](C)NC(=O)[C@H](CC(=O)O)NC2=O (stereo partly shown) [I-446]", 6.89),
    ("CC[C@H](C)[C@@H]1NC(=O)[C@H](CC(=O)O)NC(=O)[C@]2(CC=CCCCC3(CCCC=CCCCCCC[C@@](C)(C(=O)N[C@@H](Cc4ccccc4OC)C(=O)N[C@@H](Cc4csc5ccccc45)C(=O)N[C@@H](CCC(N)=O)C(N)=O)NC(=O)[C@H](CCC(N)=O)NC(=O)[C@H](Cc4ccccc4)NC(=O)[C@H](C)NC(=O)[C@H](C)NC(=O)[C@H](CCC(=O)O)NC(=O)[C@H](CC(=O)O)NC3=O)NC1=O)CCCN2C(C)=O (stereo partly shown) [I-528]", 7.20),
    ("CC[C@@H]1NC(=O)[C@H](CC(=O)O)NC(=O)[C@]2(CC=CCCCC3(CCCC=CCCCCCC[C@@](C)(C(=O)N[C@@H](Cc4ccccc4)C(=O)N[C@@H](Cc4csc5ccccc45)C(=O)N[C@@H](Cc4c[nH]cn4)C(N)=O)NC(=O)[C@H](CCC(N)=O)NC(=O)[C@H](Cc4ccccc4)NC(=O)[C@H](C)NC(=O)[C@H](C)NC(=O)[C@H](CCC(=O)O)NC(=O)[C@H](CC(=O)O)NC3=O)NC1=O)CCCN2C(C)=O (stereo partly shown) [I-570]", 7.25),
    ("CC[C@H](C)[C@@H]1NC(=O)[C@H](CC(=O)O)NC(=O)[C@]2(CC=CCCCC3(CCCC=CCCCCCC[C@@](C)(C(=O)N[C@@H](Cc4ccccc4)C(=O)N[C@@H](Cc4csc5ccccc45)C(=O)N[C@@H](CCC(N)=O)C(N)=O)NC(=O)[C@H](CC(N)=O)NC(=O)[C@H](Cc4ccccc4)NC(=O)[C@H](C)NC(=O)[C@H](C)NC(=O)[C@H](CC(=O)O)NC(=O)[C@H](CC(=O)O)NC3=O)NC1=O)CCCN2C(C)=O (stereo partly shown) [I-467]", 7.36),
    ("CC[C@H](C)[C@@H]1NC(=O)[C@H](CC(=O)O)NC(=O)[C@]2(CC=CCCCC3(CCCC=CCCCCCC[C@@](C)(C(=O)N[C@@H](Cc4ccsc4)C(=O)N[C@@H](Cc4csc5ccccc45)C(=O)N[C@@H](Cc4c[nH]cn4)C(N)=O)NC(=O)[C@H](CC(N)=O)NC(=O)[C@H](Cc4ccccc4)NC(=O)[C@H](C)NC(=O)[C@H](C)NC(=O)[C@H](CC(=O)O)NC(=O)[C@H](CC(=O)O)NC3=O)NC1=O)CCCN2C(C)=O (stereo partly shown) [I-556]", 7.70),
    ("CC(=O)N1CCC[C@]12CC=CCCCC1(CCCC=CCCCCCC[C@@](C)(C(=O)N[C@@H](Cc3ccsc3)C(=O)N[C@@H](Cc3csc4ccccc34)C(=O)N[C@@H](CCC(N)=O)C(N)=O)NC(=O)[C@H](CC(N)=O)NC(=O)[C@H](Cc3ccccc3)NC(=O)[C@H](C)NC(=O)[C@H](C)NC(=O)[C@H](CN(CC(=O)O)CC(F)(F)F)NC(=O)[C@H](CC(=O)O)NC1=O)NC(=O)[C@H](CC1CCCCC1)NC(=O)[C@H](CC(=O)O)NC2=O (stereo partly shown) [I-707]", 7.34),
    ("CC[C@H](C)[C@@H]1NC(=O)[C@H](CC(=O)O)NC(=O)[C@]2(CC=CCCCC3(CCCC=CCCCCCC[C@@](C)(C(=O)N[C@@H](Cc4ccsc4)C(=O)N[C@@H](Cc4csc5ccccc45)C(=O)N[C@@H](Cc4c[nH]cn4)C(N)=O)NC(=O)[C@H](CC(N)=O)NC(=O)[C@H](Cc4ccccc4)NC(=O)[C@H](C)NC(=O)[C@H](C)NC(=O)[C@H](CC(=O)O)NC(=O)[C@H](CC(=O)O)NC3=O)NC1=O)CCCN2C(C)=O (stereo partly shown) [I-555]", 7.39),
    ("CC(=O)N1CCC[C@]12CC=CCCCC1(CCCC=CCCCCCC[C@@](C)(C(=O)N[C@@H](Cc3ccccc3)C(=O)N[C@@H](Cc3csc4ccccc34)C(=O)N[C@@H](CCC(N)=O)C(N)=O)NC(=O)[C@H](CCC(N)=O)NC(=O)[C@H](Cc3ccccc3)NC(=O)[C@H](C)NC(=O)[C@H](C)NC(=O)[C@H](CCC(=O)O)NC(=O)[C@H](Cc3nn[nH]n3)NC1=O)NC(=O)[C@H](C)NC(=O)[C@H](CC(=O)O)NC2=O (stereo partly shown) [I-415]", 5.66),
]

Now take the following compound into account.
Q. Lookup: pIC50 / full-length beta-Catenin (Uniprot ID P35222) (Homo sapiens, UniProt P35222) / CC[C@H](C)[C@@H]1NC(=O)[C@H](CC(=O)O)NC(=O)[C@]2(CC=CCCCC3(CCCC=CCCCCCC[C@@](C)(C(=O)N[C@@H](Cc4ccsc4)C(=O)N[C@@H](Cc4csc5ccccc45)C(=O)N[C@@H](CCC(N)=O)C(N)=O)NC(=O)[C@H](CC(N)=O)NC(=O)[C@H](Cc4ccccc4)NC(=O)[C@H](C)NC(=O)[C@H](C)NC(=O)[C@H](CN(CC(=O)O)CC(F)(F)F)NC(=O)[C@H](CC(=O)O)NC3=O)NC1=O)CCCN2C(C)=O (stereo partly shown) [I-701]
A. 7.47

src = patent US20240116985A1
